src = patent US20230346948A1

Method: Plasma exposure after s.c. injection, LC-MS
Format: in vivo
Experimental Parameters: male, C57BL/6N, mouse, sc, s.c. 93.8 mg/kg (50 μmol/kg), at 1 h, read-out: maximal plasma concentration
Protocol: Three point on the down-slope was determined from 3 points on the elimination phase.
Observed Property: Cmax (ng/mL)

CCCCCCCCCCCCCC(=O)N(CCOCCOCCC(=O)N[C@@H](Cc1c[nH]cn1)C(=O)N[C@@H](Cc1c[nH]c2ccccc12)C(=O)N[C@@H](CC(C)C)C(=O)N[C@@H](CCCCN)C(=O)N[C@H](C(=O)O)C(C)C)CCOCCOCCC(=O)N[C@@H](Cc1c[nH]cn1)C(=O)N[C@@H](Cc1c[nH]c2ccccc12)C(=O)N[C@@H](CC(C)C)C(=O)N[C@@H](CCCCN)C(=O)N[C@H](C(=O)O)C(C)C [myr-NPEG4-(HWLKV)2]	20300
